- System under test: human adenosine A2A receptor (Homo sapiens, UniProt P29274)
- Construct: expressed in transfected cells; host or cells: CHO cells, semliki forest virus expression system; membrane preparation
- Sequence (P29274 whole entry): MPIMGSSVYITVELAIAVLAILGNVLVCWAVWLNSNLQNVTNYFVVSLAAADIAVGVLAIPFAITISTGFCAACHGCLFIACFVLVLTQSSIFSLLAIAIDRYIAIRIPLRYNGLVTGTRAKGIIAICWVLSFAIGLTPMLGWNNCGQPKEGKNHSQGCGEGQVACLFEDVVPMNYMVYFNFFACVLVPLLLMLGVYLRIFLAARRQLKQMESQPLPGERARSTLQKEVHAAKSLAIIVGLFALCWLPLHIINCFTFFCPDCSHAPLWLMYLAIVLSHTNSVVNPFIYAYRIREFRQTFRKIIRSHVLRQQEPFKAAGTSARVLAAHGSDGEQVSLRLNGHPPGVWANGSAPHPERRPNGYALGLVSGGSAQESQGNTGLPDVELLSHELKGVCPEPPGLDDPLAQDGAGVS
- Method description: Human adenosine A2A receptor [3H]-SCH-583261 binding assay (SPA, CHO cell membranes)
- Condition details: [3H]-SCH-583261 1 nM; membranes of CHO cells expressing the recombinant receptor; Ki by Cheng-Prussoff equation; read-out: hA2 (pKi) (converted)
Record form. Attribute: Ki. Fill in for each entry.
Output spec: scalar in nM, unitless text.

Please look up its Ki: COc1ccc(N2CCOCC2)c2sc(NC(=O)c3ccnc(N4CCN(C)CC4)c3)nc12 [Example 10]
0.724

Please look up its Ki: COc1ccc(N2CCOCC2)c2sc(NC(=O)c3ccnc(SC)c3)nc12 [Example 80]
2.09

Please look up its Ki: COc1ccc(N2CCOCC2)c2sc(NC(=O)c3ccnc(NC4CCC4)c3)nc12 [Example 90]
1.74

Please look up its Ki: COc1ccc(N2CCOCC2)c2sc(NC(=O)c3ccnc(N4CC(OC)C4)c3)nc12 [Example 75]
1.91
